Reference source: patent US9505780B2

# collection of pIC50 values tested on BRD4-2 (Homo sapiens (Human), UniProt O60885)
Keep in mind that pIC50 stands for -log10 of concentration in molar terms.

-- ask Can you look up the measured pIC50 of O=C(NO)c1ccc(-c2csc3c(=O)cc(N4CCOCC4)oc23)cc1 [Cmpd 118] for me?
-- reply 6.63

-- ask Can you look up the measured pIC50 of Cc1n[nH]c2cc(-c3csc4c(=O)cc(N5CCOCC5)oc34)ccc12 [Cmpd 131] for me?
-- reply 6.35

-- ask Can you look up the measured pIC50 of O=c1cc(N2CCSCC2)oc2c(Br)csc12 [Cmpd 127] for me?
-- reply 4.47

-- ask Can you look up the measured pIC50 of O=c1cc(N2CCOCC2)oc2c(-c3ccccc3)cccc12 [LY294002] for me?
-- reply 4.88

-- ask Can you look up the measured pIC50 of Cc1ccc(C)c(NC(=O)Nc2cccc(-c3csc4c(=O)cc(N5CCOCC5)oc34)c2)c1 [Cmpd 137] for me?
-- reply 5.90

-- ask Can you look up the measured pIC50 of O=c1cc(N2CCOCC2)oc2c(-c3ccc4c(c3)OCCO4)csc12 [Cmpd 28] for me?
-- reply 5.81

-- ask Can you look up the measured pIC50 of Nc1cccc(-c2csc3c(=O)cc(N4CCOCC4)oc23)c1 [Cmpd 11] for me?
-- reply 5.76

-- ask Can you look up the measured pIC50 of CCOC(=O)c1ccc(-c2csc3c(=O)cc(N4CCOCC4)oc23)cc1 [Cmpd 25] for me?
-- reply 6.20

-- ask Can you look up the measured pIC50 of Cc1cccc(NC(=O)Nc2cccc(-c3csc4c(=O)cc(N5CCOCC5)oc34)c2)c1 [Cmpd 135] for me?
-- reply 5.90

* * *

System: SKNBE (2) cells
Assay: Western blot of p-AKT and N-MYC in SKNBE(2) cells
Format: cell-based, human
Conditions: 24 hrs treatment, IGF stimulated
assay-metric: pAKT, Western blot

Worked cases, answers included:
mol-smiles | pAKT, Western blot
CC[C@H](Nc1ncnc2[nH]cnc12)c1nc2cccc(F)c2c(=O)n1-c1ccccc1 | decreased pAKT
O=c1cc(N2CCOCC2)oc2c(-c3ccc4c(c3)OCCO4)csc12 | decreased
Cn1c(=O)n(-c2ccc(C(C)(C)C#N)cc2)c2c3cc(-c4cnc5ccccc5c4)ccc3ncc21 | decreased pAKT
O=c1cc(N2CCOCC2)oc2c(-c3ccccc3)cccc12 | decreased

-- ask Can you look up the measured pAKT, Western blot of Nc1cc(C(F)(F)F)c(-c2cc(N3CCOCC3)nc(N3CCOCC3)n2)cn1 for me?
-- reply decreased pAKT

* * *

Molecular target: PI3Kγ (Homo sapiens (Human))
Sequence (P48736 whole entry, canonical isoform): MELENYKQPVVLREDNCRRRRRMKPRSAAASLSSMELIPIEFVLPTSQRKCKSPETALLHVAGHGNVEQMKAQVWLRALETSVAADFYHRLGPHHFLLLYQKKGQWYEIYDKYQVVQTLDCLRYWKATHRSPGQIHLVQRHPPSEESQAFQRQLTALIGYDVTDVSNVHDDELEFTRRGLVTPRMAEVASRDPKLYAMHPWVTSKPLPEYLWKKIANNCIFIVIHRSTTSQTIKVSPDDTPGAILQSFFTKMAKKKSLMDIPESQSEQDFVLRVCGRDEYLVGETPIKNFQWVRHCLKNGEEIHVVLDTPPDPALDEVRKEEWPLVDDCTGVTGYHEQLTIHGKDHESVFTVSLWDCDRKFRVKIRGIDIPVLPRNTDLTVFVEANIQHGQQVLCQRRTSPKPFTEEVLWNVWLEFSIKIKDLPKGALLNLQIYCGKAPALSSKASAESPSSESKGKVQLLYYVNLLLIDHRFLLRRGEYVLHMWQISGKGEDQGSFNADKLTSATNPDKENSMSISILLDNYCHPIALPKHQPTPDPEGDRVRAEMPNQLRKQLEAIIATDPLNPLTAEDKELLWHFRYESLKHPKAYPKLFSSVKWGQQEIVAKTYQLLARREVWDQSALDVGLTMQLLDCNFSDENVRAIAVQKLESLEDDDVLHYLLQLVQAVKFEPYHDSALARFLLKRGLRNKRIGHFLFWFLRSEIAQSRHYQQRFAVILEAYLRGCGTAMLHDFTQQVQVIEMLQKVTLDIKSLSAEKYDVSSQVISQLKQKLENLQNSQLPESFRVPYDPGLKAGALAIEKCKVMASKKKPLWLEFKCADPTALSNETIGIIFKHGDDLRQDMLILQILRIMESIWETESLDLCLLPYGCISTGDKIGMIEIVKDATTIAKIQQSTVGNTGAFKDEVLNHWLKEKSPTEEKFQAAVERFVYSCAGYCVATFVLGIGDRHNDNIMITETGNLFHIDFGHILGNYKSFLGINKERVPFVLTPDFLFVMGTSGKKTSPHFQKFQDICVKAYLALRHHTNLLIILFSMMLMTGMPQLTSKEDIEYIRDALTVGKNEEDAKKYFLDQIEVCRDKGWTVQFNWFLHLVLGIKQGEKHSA
Assay: PI3K gamma isoform inhibition
assay-metric: pIC50
Keep in mind that pIC50 stands for -log10 of concentration in molar terms.

-- ask Can you look up the measured pIC50 of Nc1cccc(-c2csc3c(=O)cc(N4CCOCC4)oc23)c1 for me?
-- reply 5.20

-- ask Can you look up the measured pIC50 of CCOC(=O)c1ccc(-c2csc3c(=O)cc(N4CCOCC4)oc23)cc1 for me?
-- reply 5.93

-- ask Can you look up the measured pIC50 of O=c1cc(N2CCSCC2)oc2c(Br)csc12 for me?
-- reply 5.01

-- ask Can you look up the measured pIC50 of O=C(NO)c1ccc(-c2csc3c(=O)cc(N4CCOCC4)oc23)cc1 for me?
-- reply 6.09
